Reference source for all entries: patent US20140155415A1

# TARGET_UNDER_TEST: GK-GKRP (interaction between glucokinase and glucokinase regulatory protein) (Homo sapiens, UniProt Q14397)
# Construct: made in house; host or cells: GKRP: baculovirus system
# Sequence (Q14397 1-625): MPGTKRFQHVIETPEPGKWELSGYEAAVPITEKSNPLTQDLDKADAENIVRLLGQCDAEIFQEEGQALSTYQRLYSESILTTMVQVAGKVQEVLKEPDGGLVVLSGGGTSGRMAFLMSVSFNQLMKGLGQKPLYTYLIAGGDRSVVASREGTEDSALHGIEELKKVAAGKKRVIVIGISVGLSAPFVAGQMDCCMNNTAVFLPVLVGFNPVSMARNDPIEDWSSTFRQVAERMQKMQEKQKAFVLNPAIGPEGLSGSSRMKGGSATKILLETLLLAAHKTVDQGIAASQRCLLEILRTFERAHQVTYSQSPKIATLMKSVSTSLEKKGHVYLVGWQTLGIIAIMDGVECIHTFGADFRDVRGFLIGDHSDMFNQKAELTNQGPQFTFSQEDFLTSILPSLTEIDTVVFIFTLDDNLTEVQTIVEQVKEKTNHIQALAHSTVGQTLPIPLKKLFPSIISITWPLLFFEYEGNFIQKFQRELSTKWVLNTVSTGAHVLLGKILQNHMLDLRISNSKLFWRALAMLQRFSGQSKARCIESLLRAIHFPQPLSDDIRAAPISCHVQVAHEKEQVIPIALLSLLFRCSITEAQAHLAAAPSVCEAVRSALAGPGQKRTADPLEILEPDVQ
# TEST_DETAILS: GK-GKRP Binding Assay (Binding), AlphaScreen
# TEST_PARAMETERS: avi-tagged GKRP, GK-fluorescein, AlphaScreen beads, 1 μM sorbitol-6-phosphate; read-out: GK-GKRP IC50 (Binding)
pIC50: −log10 of the molar value.
ASSAY_METRIC: pIC50

Known pIC50 results, listed for orientation:
{"columns": ["COMPOUND", "RECORDED_MEASUREMENT"],
 "data": [
  ["O=S(=O)(NC(c1cc2ccccc2o1)c1ccccc1I)c1ccc2c(c1)OCCCO2 (racemic)", 6.64],
  ["O=S(=O)(NC(c1cc2ccccc2o1)c1cccs1)c1ccc2c(c1)OCCCO2 (racemic)", 5.49],
  ["O=S(=O)(NC(c1ccccn1)c1cc2ccccc2o1)c1ccc2c(c1)OCCCO2 (racemic)", 5.85],
  ["O=S(=O)(N[C@@H](c1cc2ccccc2s1)c1ccccc1Cl)c1ccc2c(c1)OCC(F)(F)CO2", 6.21],
  ["O=S(=O)(NC(c1ncccn1)c1cc2ccccc2o1)c1ccc2c(c1)OCCCO2 (racemic)", 5.74]
]}

I = O=S(=O)(NC(c1ccccc1)c1cc2ccccc2s1)c1ccc2c(c1)OCCCO2 (racemic)
II = O=S(=O)(N[C@H](c1cc2ccccc2o1)c1ccccc1Cl)c1ccc2c(c1)OCCCO2 (single isomer, unassigned) [Example 20 Peak #1]
III = O=S(=O)(NC(c1ccccc1)c1cc2cnccc2s1)c1ccc2c(c1)OCCCO2 (racemic)
IV = COc1cccnc1C(NS(=O)(=O)c1ccc2c(c1)OCCCO2)c1nc2cccnc2s1 (racemic)
Order these by pIC50, descending, and give the full ranking. Form field (ranking): labels in requested order.
I, IV, II, III

----------
# TARGET_UNDER_TEST: GK-GKRP (interaction between glucokinase and glucokinase regulatory protein) (Homo sapiens, UniProt Q14397)
# Construct: made in house; host or cells: GKRP: baculovirus system
# Sequence (Q14397 1-625): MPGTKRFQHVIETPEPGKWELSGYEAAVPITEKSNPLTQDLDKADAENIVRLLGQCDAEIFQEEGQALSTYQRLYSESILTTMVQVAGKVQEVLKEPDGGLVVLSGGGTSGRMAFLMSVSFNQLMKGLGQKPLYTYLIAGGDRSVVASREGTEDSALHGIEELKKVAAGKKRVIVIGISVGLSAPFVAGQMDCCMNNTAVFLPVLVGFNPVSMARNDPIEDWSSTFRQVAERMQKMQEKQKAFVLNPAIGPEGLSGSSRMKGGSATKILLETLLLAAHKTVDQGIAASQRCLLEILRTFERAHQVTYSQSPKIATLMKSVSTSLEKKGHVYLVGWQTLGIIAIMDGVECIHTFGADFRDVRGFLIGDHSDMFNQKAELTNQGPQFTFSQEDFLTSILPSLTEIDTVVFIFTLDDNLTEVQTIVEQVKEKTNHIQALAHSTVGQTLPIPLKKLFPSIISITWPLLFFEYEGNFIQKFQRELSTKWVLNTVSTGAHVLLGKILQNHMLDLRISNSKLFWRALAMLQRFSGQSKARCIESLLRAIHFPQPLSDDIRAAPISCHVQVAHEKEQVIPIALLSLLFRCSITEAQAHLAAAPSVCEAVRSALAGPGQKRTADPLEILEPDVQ
# TEST_DETAILS: GK-GKRP Binding Assay (Binding), AlphaScreen
# TEST_PARAMETERS: avi-tagged GKRP, GK-fluorescein, AlphaScreen beads, 1 μM sorbitol-6-phosphate; read-out: GK-GKRP IC50 (Binding)
ASSAY_METRIC: IC50 (nM)

Solved entries:
{"columns": ["COMPOUND", "RECORDED_MEASUREMENT"],
 "data": [
  ["C[C@](O)(c1ccnc(-c2cccc3cc([C@H](NS(=O)(=O)c4ccc5c(c4)OCCCO5)c4ccccc4Cl)sc23)c1)C(F)(F)F", 23],
  ["O=S(=O)(NC(c1cc2ccccc2o1)c1ccccc1C(F)(F)F)c1ccc2c(c1)OCCCO2 (racemic)", 1000],
  ["Cc1ccccc1C(NS(=O)(=O)c1ccc2c(c1)OCCCO2)c1oc2ccccc2c1C (racemic)", 1700],
  ["O=S(=O)(NC(c1ccccc1)c1cc2ccnc(Cl)c2s1)c1ccc2c(c1)OCCCO2 (racemic)", 1100],
  ["Cc1ccsc1C(NS(=O)(=O)c1ccc2c(c1)OCCCO2)c1cc2ccccc2o1 (racemic)", 1400],
  ["O=S(=O)(NC(c1cc2ccccc2o1)c1ccccc1OC(F)(F)F)c1ccc2c(c1)OCCCO2 (racemic)", 970],
  ["O=S(=O)(NC(c1ccccc1)c1cc2ccncc2s1)c1ccc2c(c1)OCCCO2 (racemic)", 360],
  ["Cc1cccnc1[C@@H](NS(=O)(=O)c1ccc2c(c1)OCCCO2)c1cc2ccccc2o1 (single isomer, unassigned) [Example 26 Peak #2]", 120]
]}

a = O=S(=O)(N[C@@H](c1nc2cccnc2s1)c1ccccc1Cl)c1ccc2c(c1)OCCCO2 (single isomer, unassigned) [Example 68 Peak #2]
b = Cc1ccc(F)cc1C(NS(=O)(=O)c1ccc2c(c1)OCCCO2)c1cc2ccccc2o1 (racemic)
Which entry shows the lesser value of IC50 here, a or b ? Reply briefly: the label of your chosen item.
a

----------
# TARGET_UNDER_TEST: GK-GKRP (glucokinase / glucokinase regulatory protein) (Homo sapiens, UniProt Q14397)
# TEST_DETAILS: GKRP LC MS/MS Biochemical Assay (LCMS/MS)
# TEST_PARAMETERS: formation of 13C-glucose-6-phosphate from 13C-glucose by LC MS/MS, human His-hepatic GK, fructose-6-phosphate
pEC50: −log10 of the molar value.
ASSAY_METRIC: pEC50

Record excerpt, results attached:
{"columns": ["MOLECULE", "TARGET_UNDER_TEST", "pEC50"],
 "data": [
  ["COc1ccccc1[C@@H](NS(=O)(=O)c1ccc2c(c1)OCCCO2)c1cc2ccccc2s1 (single isomer, unassigned) [Example 40 Peak #2]", "GK-GKRP (glucokinase / glucokinase regulatory protein) (Homo sapiens, UniProt Q14397)", 7.59],
  ["Cc1ccccc1[C@@H](NS(=O)(=O)c1ccc2c(c1)OCCCO2)c1cc2ccccc2s1 (single isomer, unassigned) [Example 36 Peak #2]", "GK-GKRP (glucokinase / glucokinase regulatory protein) (Homo sapiens, UniProt Q14397)", 7.21],
  ["CSc1ccccc1C(NS(=O)(=O)c1ccc2c(c1)OCCCO2)c1cc2ccccc2o1 (racemic)", "GK-GKRP (glucokinase / glucokinase regulatory protein) (Homo sapiens, UniProt Q14397)", 7.42],
  ["CCCc1ccccc1C(NS(=O)(=O)c1ccc2c(c1)OCCCO2)c1cc2ccccc2o1 (racemic)", "GK-GKRP (glucokinase / glucokinase regulatory protein) (Homo sapiens, UniProt Q14397)", 5.77],
  ["O=S(=O)(NC(c1nc2cccnc2s1)c1ccccc1Cl)c1ccc2c(c1)OCCCO2 (racemic)", "GK-GKRP (glucokinase / glucokinase regulatory protein) (Homo sapiens, UniProt Q14397)", 7.20],
  ["O=S(=O)(N[C@@H](c1cc2ccccc2o1)c1ccccc1I)c1ccc2c(c1)OCCCO2 (single isomer, unassigned) [Example 21 Peak #2]", "GK-GKRP (glucokinase / glucokinase regulatory protein) (Homo sapiens, UniProt Q14397)", 7.38],
  ["CCc1ccccc1C(NS(=O)(=O)c1ccc2c(c1)OCCCO2)c1cc2ccccc2s1 (racemic)", "GK-GKRP (glucokinase / glucokinase regulatory protein) (Homo sapiens, UniProt Q14397)", 6.80]
]}

P = COc1cccnc1C(NS(=O)(=O)c1ccc2c(c1)OCCCO2)c1nc2ccccc2s1 (racemic)
Q = CSc1ccccc1[C@H](NS(=O)(=O)c1ccc2c(c1)OCCCO2)c1cc2ccncc2s1 (single isomer, unassigned) [Example 64 Peak #1]
Determine, for P and Q , which has the greater value of pEC50. Answer format: the label of the selected item.
Q
